Values compiled from PubChem BioAssay (Tox21).

assay: qHTS assay to identify small molecule agonists of the estrogen related receptor signaling pathway with the pleiotropic PPARgamma coactivator (PGC) from Tox21 10K library (AID 1224842); settings: PGC/ERR reporter cell line, luciferase ONE-Glo, 18 h; series mostly up to 92.4 µM; also: nearly all actives have a fitted effect of over 15% in size
Inconclusive results are not listed. Active and inactive are the calls of the source. Calls follow the shape of the dose curve; as a rule, active = well fitted activation curve with a large enough effect in the repeat runs; inconclusive = weak or mixed curves, or effect the other way; inactive = no such curve, though single readings can be large or run the other way.
API: response.call in active, inactive

query: I'd appreciate the recorded outcome for ClC1=C(Cl)C1(Cl)Cl from this test.
result: inactive

query: I'd appreciate the recorded outcome for CC(=O)OCCC(C)CC(C)(C)C (configuration not stated) from this test.
result: inactive

query: I'd appreciate the recorded outcome for CCN(Cc1cccc(S(=O)(=O)O)c1)c1ccc(C(=C2C=CC(=[N+](CC)Cc3cccc(S(=O)(=O)O)c3)C=C2)c2ccccc2S(=O)(=O)[O-])cc1 from this test.
result: inactive

query: I'd appreciate the recorded outcome for CC(C)COC(=O)COc1cc(Cl)c(Cl)cc1Cl from this test.
result: inactive

query: I'd appreciate the recorded outcome for Cc1c(C2(c3cc(Br)c(O)c(Br)c3C)OS(=O)(=O)c3ccccc32)cc(Br)c(O)c1Br from this test.
result: inactive

query: I'd appreciate the recorded outcome for O=C(O)c1cccc(Oc2ccccc2)c1 from this test.
result: inactive

query: I'd appreciate the recorded outcome for Oc1ccc2c(c1)Cc1ccccc1-2 from this test.
result: inactive

query: I'd appreciate the recorded outcome for Cc1ccc(Nc2c(F)cccc2Cl)c(CC(=O)O)c1 from this test.
result: inactive

query: I'd appreciate the recorded outcome for CC(=O)OC(C)C[N+](C)(C)C (configuration not stated) from this test.
result: inactive

query: I'd appreciate the recorded outcome for CCN(CC)C(=O)N1CCN(C)CC1 from this test.
result: inactive

query: I'd appreciate the recorded outcome for CC12CC3CC(C)(C1)CC(N)(C3)C2 from this test.
result: inactive

query: I'd appreciate the recorded outcome for O=C(NS(=O)(=O)/C=C/c1ccccc1)c1ccc(F)cc1Cl from this test.
result: active

---

biological target: Voltage-gated inwardly rectifying potassium channel KCNH2 (Homo sapiens) (UniProt Q12809); assay: Human Ether-a-go-go-Related Gene (hERG) channel small molecule antagonists: fluorescence cell-based qHTS assay (AID 1671200); conditions: hERG-U2OS cells, FluxOR thallium flux fluorescence; series mostly up to 76.8 µM; also: nearly all actives have a fitted effect of over 50% in size
Sequence (Q12809 whole entry, looked up): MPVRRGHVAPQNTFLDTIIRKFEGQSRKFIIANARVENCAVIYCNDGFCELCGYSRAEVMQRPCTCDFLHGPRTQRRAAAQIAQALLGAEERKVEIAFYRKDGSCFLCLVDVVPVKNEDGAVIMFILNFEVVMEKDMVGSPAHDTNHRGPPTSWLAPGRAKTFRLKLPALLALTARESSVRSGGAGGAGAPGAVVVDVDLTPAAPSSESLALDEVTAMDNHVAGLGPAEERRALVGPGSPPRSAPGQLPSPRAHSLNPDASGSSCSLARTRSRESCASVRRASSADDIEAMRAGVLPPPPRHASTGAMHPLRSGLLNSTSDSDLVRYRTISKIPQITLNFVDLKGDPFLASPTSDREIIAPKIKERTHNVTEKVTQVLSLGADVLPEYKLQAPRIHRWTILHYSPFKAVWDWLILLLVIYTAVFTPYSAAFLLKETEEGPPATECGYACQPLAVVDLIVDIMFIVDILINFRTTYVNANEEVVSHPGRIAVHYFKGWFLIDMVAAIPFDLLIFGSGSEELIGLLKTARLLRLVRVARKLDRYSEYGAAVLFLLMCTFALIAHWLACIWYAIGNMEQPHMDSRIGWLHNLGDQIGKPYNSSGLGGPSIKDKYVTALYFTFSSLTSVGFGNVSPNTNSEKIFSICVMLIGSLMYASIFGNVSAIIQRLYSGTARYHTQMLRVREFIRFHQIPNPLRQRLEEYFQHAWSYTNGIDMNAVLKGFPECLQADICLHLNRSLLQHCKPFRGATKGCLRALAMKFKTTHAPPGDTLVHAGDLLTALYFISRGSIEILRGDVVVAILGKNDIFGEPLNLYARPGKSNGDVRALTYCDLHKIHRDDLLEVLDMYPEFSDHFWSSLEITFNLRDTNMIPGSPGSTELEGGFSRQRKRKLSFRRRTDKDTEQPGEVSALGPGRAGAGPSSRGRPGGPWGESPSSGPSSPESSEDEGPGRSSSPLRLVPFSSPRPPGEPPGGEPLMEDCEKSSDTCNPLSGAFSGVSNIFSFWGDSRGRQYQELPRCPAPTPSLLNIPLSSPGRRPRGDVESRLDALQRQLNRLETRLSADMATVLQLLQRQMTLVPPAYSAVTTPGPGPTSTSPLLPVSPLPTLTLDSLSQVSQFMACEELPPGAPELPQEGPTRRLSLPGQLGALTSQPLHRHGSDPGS
Records with an inconclusive call do not appear. Activity calls are given as the source filed them. Calls follow the shape of the dose curve; as a rule, active = well fitted inhibition curve with a large enough effect in the repeat runs; inconclusive = weak or mixed curves; inactive = flat fitted curve, though single readings scatter.
API: response.call in t for active, f for inactive

query: I'd appreciate the recorded outcome for CC(C)N(C)C from this test.
result: f

query: I'd appreciate the recorded outcome for O=C1CC[C@@H](C(=O)O)N1 from this test.
result: f

query: I'd appreciate the recorded outcome for COc1cc(NCc2ccc3nc(N)nc(N)c3c2C)cc(OC)c1OC from this test.
result: f

query: I'd appreciate the recorded outcome for Nc1ccc(NC(=O)c2ccc(N)cc2)cc1 from this test.
result: f

query: I'd appreciate the recorded outcome for Cc1ccc(NC(=O)N(C)C)cc1NC(=O)N(C)C from this test.
result: f

query: I'd appreciate the recorded outcome for CC1=CC[C@@]23C[C@@H]1C(C)(C)[C@@H]2CC[C@H]3C from this test.
result: f

query: I'd appreciate the recorded outcome for COC(=O)Nc1nc2ccc(C(=O)C3CC3)cc2[nH]1 from this test.
result: f

query: I'd appreciate the recorded outcome for COC(OC)OC from this test.
result: f

query: I'd appreciate the recorded outcome for CCc1ccc(C)cc1 from this test.
result: f

query: I'd appreciate the recorded outcome for Cc1ccccc1S(N)(=O)=O from this test.
result: f

query: I'd appreciate the recorded outcome for CC(C)(O)CCc1ccccc1 from this test.
result: f

query: I'd appreciate the recorded outcome for CC[C@H]1OC(=O)[C@H](C)[C@@H](O[C@H]2C[C@@](C)(OC)[C@@H](O)[C@H](C)O2)[C@H](C)[C@@H](O[C@@H]2O[C@H](C)C[C@H](N(C)C)[C@H]2O)[C@](C)(O)C[C@@H](C)/C(=N\OCOCCOC)[C@H](C)[C@@H](O)[C@]1(C)O from this test.
result: f

query: I'd appreciate the recorded outcome for CCCCCCC(O)CCCCCCCCCCC(=O)OC (configuration not stated) from this test.
result: f

query: I'd appreciate the recorded outcome for CCOc1ncc(F)c(=O)[nH]1 from this test.
result: f

query: I'd appreciate the recorded outcome for CCCC(=O)OC(=O)CCC from this test.
result: f

query: I'd appreciate the recorded outcome for NC(=O)CCCCC(N)=O from this test.
result: f

query: I'd appreciate the recorded outcome for CC(C)(C)C1(CCc2ccc(Cl)cc2)CO1 (configuration not stated) from this test.
result: t

query: I'd appreciate the recorded outcome for CC/C=C\C/C=C\C/C=C\CCCCCCCC(=O)OCC from this test.
result: f

query: I'd appreciate the recorded outcome for NC(=O)c1ccccc1[N+](=O)[O-] from this test.
result: f

query: I'd appreciate the recorded outcome for C=CC(=O)O from this test.
result: f

query: I'd appreciate the recorded outcome for CC(C)C1CCC(C(=O)N[C@H](Cc2ccccc2)C(=O)O)CC1 (some centres not stated) from this test.
result: f

query: I'd appreciate the recorded outcome for CC(C)COC(=O)c1ccc(O)cc1 from this test.
result: f

query: I'd appreciate the recorded outcome for O=P(O)(O)Oc1ccccc1 from this test.
result: f

query: I'd appreciate the recorded outcome for CC(C(=O)O)c1ccc(C(=O)c2cccs2)cc1 (configuration not stated) from this test.
result: f

query: I'd appreciate the recorded outcome for O=NN(CCCl)C(=O)NCCCl from this test.
result: f

query: I'd appreciate the recorded outcome for c1ccc(CNc2ncnc3c2ncn3C2CCCCO2)cc1 (configuration not stated) from this test.
result: f

query: I'd appreciate the recorded outcome for CC(C)(C)CCCCCCOC(=O)c1ccccc1C(=O)OCCCCCCC(C)(C)C from this test.
result: f

---

target: Cytochrome P450 1A2 (Homo sapiens); assay: Cytochrome P450 Family 1 Subfamily A Member 2 (CYP1A2) small molecule antagonists: luciferase reporter qHTS assay (AID 1671199); conditions: P450-Glo CYP1A2 enzyme, luciferin luminescence, 1 h; series mostly up to 115 µM; also: nearly all actives have a fitted effect of over 50% in size; also: potency is read from the fitted curve at half-maximal effect
Results filed as inconclusive are left out. Activity calls are given as the source filed them. Calls follow the shape of the dose curve; as a rule, active = well fitted inhibition curve with a large enough effect in the repeat runs; inconclusive = weak or mixed curves; inactive = no such curve, though single readings can be large or run the other way.
measurement-name: Potency

Solved cases (10 shown):
CC(=O)OCCC(C)CC(C)(C)C (stereo not drawn)
inactive
CCN(CC)CC(=O)Nc1c(C)cccc1C(=O)OC
inactive
CCN(Cc1cccc(S(=O)(=O)O)c1)c1ccc(C(=C2C=CC(=[N+](CC)Cc3cccc(S(=O)(=O)O)c3)C=C2)c2ccccc2S(=O)(=O)[O-])cc1
17.9 µM (active)
C[C@@H]1C[C@H]2[C@@H]3CCC4=CC(=O)C=C[C@]4(C)[C@@]3(F)[C@@H](O)C[C@]2(C)[C@@]1(O)C(=O)COP(=O)(O)O
inactive
CC(C)C1CCC(C(=O)N[C@H](Cc2ccccc2)C(=O)O)CC1 (stereo partly drawn)
inactive
NC(=O)CCCCC(N)=O
inactive
CCCOC(=O)c1c(Cl)c(Cl)c(Cl)c(Cl)c1C(=O)OCCC
2.24 µM (active)
COC1CCC=CO1 (stereo not drawn)
inactive
CC(C)OC(=O)c1ccccc1C(=O)OC(C)C
3.56 µM (active)
CC[C@H]1OC(=O)[C@H](C)[C@@H](O[C@H]2C[C@@](C)(OC)[C@@H](O)[C@H](C)O2)[C@H](C)[C@@H](O[C@@H]2O[C@H](C)C[C@H](N(C)C)[C@H]2O)[C@](C)(O)C[C@@H](C)C(=O)[C@H](C)[C@@H](O)[C@]1(C)O
inactive

query: Entry O=C1[C@@H]2[C@H]3CC[C@H](C3)[C@@H]2C(=O)N1CCCCN1CCN(c2ncccn2)CC1 needs its Potency filled in; supply it.
result: inactive

query: Entry CCCCC(CC)COS(=O)(=O)O (stereo not drawn) needs its Potency filled in; supply it.
result: inactive

query: Entry O=C(O)/C=C/c1ccc(O)c(O)c1 needs its Potency filled in; supply it.
result: inactive

query: Entry Oc1cccc2[nH]ccc12 needs its Potency filled in; supply it.
result: inactive

query: Entry CCCc1nc2c(C)cc(-c3nc4ccccc4n3C)cc2n1Cc1ccc(-c2ccccc2C(=O)O)cc1 needs its Potency filled in; supply it.
result: inactive

query: Entry COc1ccc(CCN(C)CCCN2CCc3cc(OC)c(OC)cc3CC2=O)cc1OC needs its Potency filled in; supply it.
result: inactive

query: Entry COc1ccc(-c2cc(C(F)F)nn2-c2ccc(S(N)(=O)=O)cc2)cc1F needs its Potency filled in; supply it.
result: inactive

query: Entry O=C(O)CCS needs its Potency filled in; supply it.
result: inactive

query: Entry C=CCOC(=O)COCCC(C)C needs its Potency filled in; supply it.
result: inactive

query: Entry CC(CCc1ccc(O)cc1)NCCc1ccc(O)c(O)c1 (stereo not drawn) needs its Potency filled in; supply it.
result: inactive

query: Entry COc1ccc(-n2nc(C(F)F)cc2-c2ccc(S(C)=O)cc2)cc1 (stereo not drawn) needs its Potency filled in; supply it.
result: 31.7 µM (active)

query: Entry C1CCCCC1 needs its Potency filled in; supply it.
result: inactive

query: Entry Nc1c(Cl)cc(Cl)cc1[N+](=O)[O-] needs its Potency filled in; supply it.
result: 5.64 µM (active)
